study.target: CLK1 (human) (UniProt P49759)
Sequence (P49759 whole entry, looked up): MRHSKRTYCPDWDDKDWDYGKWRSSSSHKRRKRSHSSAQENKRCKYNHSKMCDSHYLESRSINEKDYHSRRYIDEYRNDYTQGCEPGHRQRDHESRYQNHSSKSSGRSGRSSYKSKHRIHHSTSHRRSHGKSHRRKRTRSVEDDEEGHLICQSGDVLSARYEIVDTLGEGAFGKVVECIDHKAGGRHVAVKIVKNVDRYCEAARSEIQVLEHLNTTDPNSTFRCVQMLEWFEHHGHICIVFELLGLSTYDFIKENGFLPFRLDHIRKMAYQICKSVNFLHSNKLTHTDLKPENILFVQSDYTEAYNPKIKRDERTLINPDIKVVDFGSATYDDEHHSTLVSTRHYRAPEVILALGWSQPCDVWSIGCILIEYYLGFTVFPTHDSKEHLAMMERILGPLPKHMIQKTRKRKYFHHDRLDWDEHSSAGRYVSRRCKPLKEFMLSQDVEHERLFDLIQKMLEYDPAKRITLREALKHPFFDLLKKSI
test.description: radiometric filter-binding kinase assay, Kinase HotSpot
study.conditions: compound 0.5 µM; ATP 10 µM
readout.type: residual activity (%)
Give bare numbers, in %.

List the reported residual activity of each compound below.
1. COc1cccc(-c2cc(=O)c3ccccc3o2)c1N
2. N#CCCc1ccc2c(c1)-c1[nH]c3ccc([N+](=O)[O-])cc3c1CC(=O)N2
3. O=S(=O)(NCCNC/C=C/c1ccc(Br)cc1)c1cccc2cnccc12
4. CCOc1cc2ncnc(Nc3cccc(Br)c3)c2cc1OCC

(A)
1. 97.7
2. 99.6
3. 103
4. 97.2

----------
study.target: PIM3 (human)
test.description: radiometric filter-binding kinase assay, Kinase HotSpot
study.conditions: compound 0.5 µM; ATP 10 µM
readout.type: residual activity (%)
One number for each entry, in %.

(Q) Entry O=C1NC(=O)c2c1c1c3ccccc3[nH]c1c1[nH]c3cc(Br)ccc3c21 : reported residual activity = ?
(A) 4.69

(Q) What residual activity value was documented for this compound, COc1cc2c(Nc3ccc(Br)cc3F)ncnc2cc1OCC1CCN(C)CC1 ?
(A) 96.1

(Q) residual activity for Nc1ncnc2c1cnn2-c1ccccc1 ?
(A) 91.4

(Q) So what does the record say about residual activity for CCOc1cc2ncnc(Nc3cccc(Br)c3)c2cc1OCC ?
(A) 105

Provide each entry's residual activity from the list below.
1. O=S(=O)(NCCNC/C=C/c1ccc(Br)cc1)c1cccc2cnccc12
2. N/C(=N\N=C/c1ccc(-c2cccc([N+](=O)[O-])c2)o1)N[N+](=O)[O-]
3. O=c1cc(N2CCOCC2)oc2c(-c3ccccc3)cccc12
4. COc1cc2c(N3CCN(C(=O)Nc4ccc(OC(C)C)cc4)CC3)ncnc2cc1OCCCN1CCCCC1
5. Cn1cc(/C=C2\C(=O)Nc3ccc(S(N)(=O)=O)cc32)c2ccccc21
6. O=c1c(-c2ccc(F)cc2)c(-c2ccncc2)[nH]n1-c1ccc(Cl)cc1

(A)
1: 98.3; 2: 114; 3: 88.5; 4: 100; 5: 91.6; 6: 89.9

Data provenance is the kinase profiling compilation of Christmann-Franck et al. (2016).
